Target: human norepinephrine transporter (Homo sapiens, UniProt P23975)
Construct: expressed in transfected cells
Sequence (P23975 whole entry): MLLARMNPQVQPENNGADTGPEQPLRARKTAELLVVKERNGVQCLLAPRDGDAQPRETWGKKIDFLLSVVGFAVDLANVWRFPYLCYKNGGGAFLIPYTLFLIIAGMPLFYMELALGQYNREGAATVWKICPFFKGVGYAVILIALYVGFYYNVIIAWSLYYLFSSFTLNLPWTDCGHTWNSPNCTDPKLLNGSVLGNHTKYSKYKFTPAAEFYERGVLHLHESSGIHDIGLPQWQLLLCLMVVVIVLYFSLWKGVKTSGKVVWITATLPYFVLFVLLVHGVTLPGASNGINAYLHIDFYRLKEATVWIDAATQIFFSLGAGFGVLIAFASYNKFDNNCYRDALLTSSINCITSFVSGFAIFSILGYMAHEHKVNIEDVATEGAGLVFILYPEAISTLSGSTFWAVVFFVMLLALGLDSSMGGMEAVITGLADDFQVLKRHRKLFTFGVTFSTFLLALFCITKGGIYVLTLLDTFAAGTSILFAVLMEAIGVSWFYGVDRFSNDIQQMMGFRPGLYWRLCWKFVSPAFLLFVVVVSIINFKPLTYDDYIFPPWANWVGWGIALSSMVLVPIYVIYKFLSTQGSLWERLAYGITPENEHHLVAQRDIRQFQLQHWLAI
Experiment: Inhibitory action on human norepinephrine transporter ([3H]-norepinephrine uptake in CHO cells)
Format: cell-based
Conditions: CHO, compound 1 μM; relative to inhibitory activity of 10 μM DMI as 100%; read-out: inhibitory rate (%)
Procedure: Human serotonin transporter cDNA was amplified from human brain cDNA library by PCR, and inserted into pCRII-TOPO vector (manufactured by Invitrogen). […] Then, an assay buffer (126 mM NaCl, 4.95 mM KCl, 1.26 mM KH2PO4, 1.26 mM MgSO4, 10 mM HEPES, 2.32 mM CaCl2, 5.52 mM Glucose, 0.5% BSA) was prepared, the medium in the cell plate was removed and the assay buffer was added by 80 μL. […] The radioactivity was measured by TopCount (PerkinElmer). […]
Counter-ions that a name gives are not always drawn.
Listing of entries alongside the reported inhibition at 1 µM.
Number plus unit, in that order.

Would you please look over these solved cases?
MOLECULE	SYSTEM NAME	MEAS VALUE
CCOCC(=O)NC[C@@H]1CNCCO[C@H]1c1ccc(Cl)c(F)c1 [Example 40, monohydrochloride]	human norepinephrine transporter (Homo sapiens, UniProt P23975)	104%
CS(=O)(=O)C[C@H]1CNCCO[C@@H]1c1ccc(Cl)c(Cl)c1 [Example 93, monohydrochloride]	human norepinephrine transporter (Homo sapiens, UniProt P23975)	96%
Cc1cc(C(=O)O)nn1C[C@@H]1CNCCO[C@H]1c1ccc(Cl)c(Cl)c1 [Example 187, monohydrochloride]	human norepinephrine transporter (Homo sapiens, UniProt P23975)	101%

// moving on: another record for inhibition at 1 µM
Any idea what inhibition at 1 µM came out for O=c1[nH]c(-c2cccnc2OC2CNCCOC2c2ccc(Cl)c(Cl)c2)no1 (stereo not shown) on human norepinephrine transporter (Homo sapiens, UniProt P23975)?
104%

Sourced from patent US20130267494A1
